assay-target: human Orexin-2 receptor (Homo sapiens)
Construct: expressed in transfected cells; host or cells: HEK293 cells (transient transfection, Genejuice); membranes
Sequence (O43614 1-444): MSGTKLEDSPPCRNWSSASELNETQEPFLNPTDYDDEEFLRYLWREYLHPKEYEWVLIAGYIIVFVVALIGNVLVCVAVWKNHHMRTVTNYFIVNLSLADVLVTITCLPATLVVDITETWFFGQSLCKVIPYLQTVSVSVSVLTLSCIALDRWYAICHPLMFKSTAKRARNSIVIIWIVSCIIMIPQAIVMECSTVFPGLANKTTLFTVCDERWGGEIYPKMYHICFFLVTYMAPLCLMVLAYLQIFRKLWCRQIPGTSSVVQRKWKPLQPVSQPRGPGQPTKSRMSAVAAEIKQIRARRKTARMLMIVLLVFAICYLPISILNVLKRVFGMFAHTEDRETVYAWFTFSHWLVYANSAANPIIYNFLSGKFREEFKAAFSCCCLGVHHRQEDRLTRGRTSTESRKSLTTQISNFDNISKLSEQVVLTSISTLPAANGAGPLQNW
test-name: 3H-EMPA radioligand binding assay
test-settings: 3H-EMPA displacement, membranes of HEK293 cells transfected with human Orexin-2 receptor; KI by Cheng-Prussoff; read-out: OX2 pKi ave (converted)
Would you kindly list Ki for each of these compounds?
The figure you give is taken to be in nM; do not add the unit.

Inquiry: Param item = COc1c(C)cc(N2C(=O)N(Cc3ccc(F)cc3Cl)c3ccccc3S2(=O)=O)cc1C [Example 80] ; retrieve measured Ki.
Reply text: 7.59

Inquiry: Param item = COc1ccc(N2C(=O)N(Cc3ccc4c(c3)OCO4)c3ccccc3S2(=O)=O)cc1OC [Example 1] ; retrieve measured Ki.
Reply text: 316

Inquiry: Param item = CSc1cccc(N2C(=O)N(Cc3ccccc3F)c3ccccc3S2(=O)=O)c1 [Example 23] ; retrieve measured Ki.
Reply text: 20.9

----------
assay-target: human Orexin-2 receptor (Homo sapiens)
Construct: expressed in transfected cells; host or cells: HEK293 cells (transient transfection, Genejuice); membranes
test-name: 3H-EMPA radioligand binding assay
test-settings: 3H-EMPA displacement, membranes of HEK293 cells transfected with human Orexin-2 receptor; KI by Cheng-Prussoff; read-out: OX2 pKi ave (converted)
# class assignment by measured Ki: low bin: < 10 nM; mid bin: ≥ 10 nM and < 100 nM; high bin: ≥ 100 nM

Inquiry: Please indicate the class for O=C1N(Cc2c(F)cccc2Cl)c2ccccc2S(=O)(=O)N1c1cccc(Cl)c1 based on its Ki.
Reply text: mid bin

Inquiry: Please indicate the class for CSc1cccc(N2C(=O)N(Cc3ccccc3Cl)c3ccccc3S2(=O)=O)c1 based on its Ki.
Reply text: mid bin

Inquiry: Please indicate the class for Cc1noc(C)c1CCN1C(=O)N(Cc2c(F)cccc2F)c2ccccc2S1(=O)=O based on its Ki.
Reply text: high bin

Inquiry: Please indicate the class for COc1cnc(N2C(=O)N(Cc3c(F)cc(F)cc3F)c3ccccc3S2(=O)=O)nc1OC based on its Ki.
Reply text: low bin

Inquiry: Please indicate the class for O=C1N(Cc2c(F)cccc2Cl)c2ccccc2S(=O)(=O)N1CC1CCOCC1 based on its Ki.
Reply text: high bin

Inquiry: Please indicate the class for COc1cc(F)c(CN2C(=O)N(c3ccc(OC)c(OC)c3)S(=O)(=O)c3ccccc32)c(Cl)c1 based on its Ki.
Reply text: low bin

Inquiry: Please indicate the class for COc1ccc(N2C(=O)N(Cc3ccccc3)c3ccccc3S2(=O)=O)cc1OC based on its Ki.
Reply text: mid bin

Inquiry: Please indicate the class for CNc1ncc(N2C(=O)N(Cc3c(F)cc(OC)cc3F)c3ncccc3S2(=O)=O)cc1C based on its Ki.
Reply text: low bin

Inquiry: Please indicate the class for CSc1cccc(N2C(=O)N(CC3CCC3)c3ccccc3S2(=O)=O)c1 based on its Ki.
Reply text: high bin

Inquiry: Please indicate the class for COc1cc(N2C(=O)N(Cc3c(F)cc(F)cc3Cl)c3ncccc3S2(=O)=O)cc(OC)n1 based on its Ki.
Reply text: low bin

Inquiry: Please indicate the class for COc1ccc(CN2C(=O)N(c3ccc(OC)c(OC)c3)S(=O)(=O)c3ccccc32)cc1F based on its Ki.
Reply text: high bin

Inquiry: Please indicate the class for Cc1cc(CN2C(=O)N(Cc3c(F)cccc3Cl)c3ccccc3S2(=O)=O)no1 based on its Ki.
Reply text: high bin

Inquiry: Please indicate the class for COc1ccc(N2C(=O)N(Cc3ncc(Br)cc3F)c3ccccc3S2(=O)=O)cc1OC based on its Ki.
Reply text: mid bin

----------
assay-target: human Orexin-2 receptor (Homo sapiens)
Construct: expressed in transfected cells; host or cells: HEK293 cells (transient transfection, Genejuice); membranes
test-name: 3H-EMPA radioligand binding assay
test-settings: 3H-EMPA displacement, membranes of HEK293 cells transfected with human Orexin-2 receptor; KI by Cheng-Prussoff; read-out: OX2 pKi ave (converted)
metric-name: Ki

Inquiry: Param item = COc1cc(N2C(=O)N(Cc3c(F)cc(F)cc3Cl)c3ccccc3S2(=O)=O)ccn1 [Example 141] ; retrieve measured Ki.
Reply text: 6.92 nM

Inquiry: Param item = O=C1N(Cc2c(F)cccc2Cl)c2ccccc2S(=O)(=O)N1c1cc(F)ccc1F [Example 46] ; retrieve measured Ki.
Reply text: 63.1 nM

Inquiry: Param item = Cc1cccc(N2C(=O)N(Cc3c(F)cccc3Cl)c3ccccc3S2(=O)=O)c1 [Example 31] ; retrieve measured Ki.
Reply text: 10.5 nM

Inquiry: Param item = COc1ccc(N2C(=O)N(Cc3ccccc3C)c3ccccc3S2(=O)=O)cc1OC [Example 18] ; retrieve measured Ki.
Reply text: 14.8 nM

Inquiry: Param item = O=C1N(Cc2c(F)cccc2F)c2ccccc2S(=O)(=O)N1Cc1cc(=O)[nH]c2ccccc12 [Example 126] ; retrieve measured Ki.
Reply text: 35.5 nM

Inquiry: Param item = COc1cc(F)c(CN2C(=O)N(c3cccc(OC)n3)S(=O)(=O)c3ccccc32)c(F)c1 [Example 138] ; retrieve measured Ki.
Reply text: 1.45 nM

Inquiry: Param item = Cc1ccc(N2C(=O)N(Cc3ccccc3F)c3ccccc3S2(=O)=O)cc1C [Example 57] ; retrieve measured Ki.
Reply text: 23.4 nM

Inquiry: Param item = COc1cc(F)c(CN2C(=O)N(c3cnc(C)c(C)c3)S(=O)(=O)c3ccccc32)c(F)c1 [Example 178] ; retrieve measured Ki.
Reply text: 4.37 nM

Inquiry: Param item = COC(=O)c1ccc(OC)c(CN2C(=O)N(c3ccc(OC)c(OC)c3)S(=O)(=O)c3ccccc32)c1 [Example 60] ; retrieve measured Ki.
Reply text: 40.7 nM

Inquiry: Param item = COc1ccc(N2C(=O)N(Cc3c(F)cc(F)cc3Cl)c3ccccc3S2(=O)=O)nc1OC [Example 161] ; retrieve measured Ki.
Reply text: 1.26 nM

Inquiry: Param item = COc1cc(N2C(=O)N(Cc3ncc(F)cc3C)c3ccccc3S2(=O)=O)cc(OC)n1 [Example 162] ; retrieve measured Ki.
Reply text: 18.6 nM

Inquiry: Param item = COc1cc(F)c(CN2C(=O)N(c3cnc(OC)c(OC)c3)S(=O)(=O)c3cccnc32)c(F)c1 [Example 165] ; retrieve measured Ki.
Reply text: 0.676 nM

Inquiry: Param item = COc1cc(OC)cc(N2C(=O)N(Cc3cccc(C)c3)c3ccccc3S2(=O)=O)c1 [Example 6] ; retrieve measured Ki.
Reply text: 468 nM

Inquiry: Param item = COc1cccc(N2C(=O)N(Cc3c(F)cc(F)cc3Cl)c3ccccc3S2(=O)=O)n1 [Example 139] ; retrieve measured Ki.
Reply text: 13.8 nM

----------
assay-target: human Orexin-2 receptor (Homo sapiens, UniProt O43614)
Construct: expressed in transfected cells; host or cells: HEK293 cells (transient transfection, Genejuice); membranes
test-name: 3H-EMPA radioligand binding assay
test-settings: 3H-EMPA displacement, membranes of HEK293 cells transfected with human Orexin-2 receptor; KI by Cheng-Prussoff; read-out: OX2 pKi ave (converted)
Would you kindly list Ki for each of these compounds?
The figure you give is taken to be in nM; do not add the unit.

Inquiry: Param item = O=C1N(Cc2c(F)cccc2Cl)c2ccccc2S(=O)(=O)N1Cc1ccccn1 [Example 128] ; retrieve measured Ki.
Reply text: 79.4

Inquiry: Param item = COc1ccc(N2C(=O)N(Cc3c(Cl)cccc3Cl)c3ccccc3S2(=O)=O)cc1OC [Example 68] ; retrieve measured Ki.
Reply text: 0.708

Inquiry: Param item = N#Cc1ccc(CN2C(=O)N(Cc3c(F)cccc3F)c3ccccc3S2(=O)=O)cc1F [Example 65] ; retrieve measured Ki.
Reply text: 200

Inquiry: Param item = COc1ccc(N2C(=O)N(Cc3c(F)cc(C)cc3Cl)c3ccccc3S2(=O)=O)cn1 [Example 135] ; retrieve measured Ki.
Reply text: 13.8

Inquiry: Param item = COc1cc(N2C(=O)N(Cc3c(F)cccc3Cl)c3ccccc3S2(=O)=O)cc(OC)n1 [Example 166] ; retrieve measured Ki.
Reply text: 2.69

Inquiry: Param item = COc1cc(N2C(=O)N(Cc3c(F)cc(F)cc3F)c3ncccc3S2(=O)=O)cnc1OC [Example 100] ; retrieve measured Ki.
Reply text: 2.45
